assay: chemical genetic growth profiling, strain panel (AID 1159580);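 note: tested at 20 µM; growth read once vehicle control cultures reached saturation at 30 °C; 1 = growth at the plate median or of vehicle wells; lower values mean less growth of the strain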; settings: S. cerevisiae deletion strains, growth OD, locus YGL248W, strain PDE1, stronger effect = lower value
Screen size: about 5,500 compounds; about 2,000 (36%) were called active. Not shown: some 18% with an inconclusive outcome. Some of the results follow.
Labelling: normalized growth reported below 1 becomes true (1); at or above becomes false (0).

Past entries and their recorded results:
CC(=O)OCC1(C)CCC2(C)CCC3(C)C4=CCc5c(cc(OC(C)=O)c(OC(C)=O)c5C)C4(C)CCC3(C)C2C1 (stereo not given) : false (0)
CC1(C)C(=O)C=C[C@@]2(C)C1=C(O)C(=O)[C@]1(C)C2CC[C@@]2(C)[C@H](c3ccoc3)C[C@H]3O[C@]321 (stereo not given in full) : true (1)

Query: Is normalized growth of "O=[N+]([O-])c1cc(O)c(O)c([N+](=O)[O-])c1" strictly below 1?
Reply: false (0)

Query: Is normalized growth of Cc1c(O)c(O)cc2c1CC=C1[C@@]2(C)CC[C@@]2(C)C3C[C@](C)(C(=O)O)CC[C@]3(C)CC[C@]12C (stereo not given in full) strictly below 1?
Reply: true (1)

Query: Is normalized growth of "Oc1c(Br)cc(Br)c2cccnc12" strictly below 1?
Reply: true (1)

Query: Is normalized growth of "C=C(C)[C@H]1CC=C(C(=O)O)CC1" strictly below 1?
Reply: true (1)

Query: Is normalized growth of "Oc1ccc(Cl)c2cccnc12" strictly below 1?
Reply: true (1)

Query: Is normalized growth of "CS(=O)(=O)CCCCN=C=S" strictly below 1?
Reply: true (1)

Query: Is normalized growth of "CCCc1occc(=O)c1/C=C/O" strictly below 1?
Reply: true (1)

----------
The compounds listed here are annotated with their normalized growth.
assay: chemical genetic growth profiling, strain panel (AID 1159580); conditions: S. cerevisiae deletion strains, growth OD, locus YOR265W, strain rbl2, stronger effect = lower value
Out of some 5,500 compounds screened, about 2,000 (36%) were called active. Not shown: some 18% with an inconclusive outcome. The list shows a part of the results.
Give a plain numeric answer without units written out.

Query: # query: normalized growth of entry O=C1CCCC2C3CC(CN12)[C@@H]1CCCCN1C3 (stereo partly specified)
Reply: 1

Query: # query: normalized growth of entry COC(=O)C[C@H]1C(C)(C)C(=O)[C@@H]2CC3=C4CC(=O)O[C@@H](c5ccoc5)[C@]4(C)CCC3[C@@]1(C)C2=O (stereo partly specified)
Reply: 0.987

Query: # query: normalized growth of entry C=CC(C1=CC(=O)C(OC)=CC1=O)c1ccc(OC)cc1 (stereo unspecified)
Reply: 0.945

Query: # query: normalized growth of entry "CC(C)=CCC/C(C)=C/CC/C(C)=C/CC/C(C)=C/CC/C(C)=C/CC/C(C)=C/CC/C(C)=C/CC/C(C)=C/CC/C(C)=C/CO"
Reply: 1.01

Query: # query: normalized growth of entry "CN(C)CCOc1ccc(/C(=C(/CCCl)c2ccccc2)c2ccccc2)cc1"
Reply: 0.0684

----------
assay: chemical genetic growth profiling, strain panel (AID 1159580); conditions: S. cerevisiae deletion strains, growth OD, locus YOL012C, strain htz1
The whole screen tested about 5,500 compounds, of which about 2,000 (36%) were called active. Not shown: some 18% with an inconclusive outcome. The list shows a part of the results.
The molecules listed here are annotated with their normalized growth.
Give a plain numeric answer without units written out.

O=C(O)CCC(=O)C(=O)O : 0.918
Nc1ccc(S(=O)(=O)Nc2ccc(Cl)nn2)cc1 : 1.39
NC(=NCCC[C@H](N)C(=O)O)NC(CCC(=O)O)C(=O)O (stereo partly specified) : 1.47
NCCCC[C@H](N[C@@H](CCc1ccccc1)C(=O)O)C(=O)N1CCC[C@H]1C(=O)O : 1.17
COC(=O)Oc1ccccc1C(=O)O : 0.797

Lab note: next molecule to report on.
Query: # query: normalized growth of entry C1CCN2CC3CC(CN4CCCCC34)C2C1 (stereo unspecified)
Reply: 0.345

----------
test: chemical genetic growth profiling, strain panel (AID 1159580); conditions: S. cerevisiae deletion strains, growth OD, locus YHR200W, strain rpn10, stronger effect = lower value
Screen size: about 5,500 compounds; about 2,000 (36%) were called active. Another 18% or so got no clear call; they are omitted. The list shows a part of the results.
The molecules listed here are annotated with their normalized growth.
Give a plain numeric answer without units written out.

Consider the reported normalized growth for these molecules:
Oc1ccc(Cl)c2cccnc12 : 0.0662
NCC(CC(=O)O)c1ccc(Cl)s1 (stereo not given) : 0.978
O=C(OC1Cc2c(O)cc(O)cc2OC1c1cc(O)c(O)c(O)c1-c1c(C2Oc3cc(O)cc(O)c3CC2OC(=O)c2cc(O)c(O)c(O)c2)cc(O)c(O)c1O)c1cc(O)c(O)c(O)c1 (stereo not given) : 1
Nc1nc2ncc(C(=O)O)nc2c(=O)[nH]1 : 1
CSCCC(NC=O)C(=O)NC(C)C(=O)O (stereo not given) : 0.987

Query: # query: normalized growth of entry "CNC[C@@H](O)c1ccc(O)c(O)c1"
Reply: 0.97

Query: # query: normalized growth of entry "CN[C@H](CC(=O)O)C(=O)O"
Reply: 0.98

Query: # query: normalized growth of entry CC(=O)c1c(O)c(C)c(O)c2c1OC1=CC(=O)C(C(C)=O)C(=O)C12C (stereo not given)
Reply: 0.932

Query: # query: normalized growth of entry "COc1cc2c(c(OC)c1OC)-c1ccc(OC)c(=O)cc1[C@@H](NC(C)=O)CC2"
Reply: 1.03

Query: # query: normalized growth of entry "Nc1ncn([C@@H]2O[C@H](CO)[C@@H](O)[C@H]2O)c(=O)n1"
Reply: 0.993

Query: # query: normalized growth of entry CC(=O)OCC1(C)CCC2(C)CCC3(C)C4=CCc5c(cc(OC(C)=O)c(OC(C)=O)c5C)C4(C)CCC3(C)C2C1 (stereo not given)
Reply: 1.01

Query: # query: normalized growth of entry CC1(C)C(O)CC(O)C2(C)C1CC(=O)C1(C)C2CCC2(C)C(C(=O)O)OC(=O)C3OC321 (stereo not given)
Reply: 1

Query: # query: normalized growth of entry O=C(O)CCCCC1CCSS1 (stereo not given)
Reply: 0.991

Query: # query: normalized growth of entry CCC(Cc1c(I)cc(I)c(N)c1I)C(=O)O (stereo not given)
Reply: 1

Query: # query: normalized growth of entry "C1CNCCN1"
Reply: 1.01

----------
assay: chemical genetic growth profiling, strain panel (AID 1159580);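 note: tested at 20 µM; growth read once vehicle control cultures reached saturation at 30 °C; 1 = growth at the plate median or of vehicle wells; lower values mean less growth of the strain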; settings: S. cerevisiae deletion strains, growth OD, locus YDR318W, strain mcm21, stronger effect = lower value
Among all 5,500 compounds or so, about 2,000 (36%) were called active. About 18% were inconclusive and are not listed. The list shows a part of the results.
The compounds listed here are annotated with their normalized growth.
Give a plain numeric answer without units written out.

Consider the reported normalized growth for these compounds:
C=C(C)[C@H]1CC=C(C(=O)O)CC1 : 0.938
OC[C@@H](O)[C@@H](O[C@@H]1O[C@H](CO)[C@@H](O)[C@H](O)[C@H]1O)[C@H](O)[C@@H](O)CO : 1.04

Query: # query: normalized growth of entry "Cc1ccsc1/C=C/C1=NCCCN1C"
Reply: 0.972

----------
assay: chemical genetic growth profiling, strain panel (AID 1159580);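 note: tested at 20 µM; growth read once vehicle control cultures reached saturation at 30 °C; 1 = growth at the plate median or of vehicle wells; lower values mean less growth of the strain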; conditions: S. cerevisiae deletion strains, growth OD, locus YHR013C, strain ard1, stronger effect = lower value
The campaign covered roughly 5,500 compounds. About 2,000 (36%) were called active. Roughly 18% stayed inconclusive and do not appear here. The list shows a part of the results.
The compounds listed here are annotated with their normalized growth.
Give a plain numeric answer without units written out.

Consider the reported normalized growth for these compounds:
CCCCC1=NC2(CCCC2)C(=O)N1Cc1ccc(-c2ccccc2-c2nn[nH]n2)cc1 : 1.01
NCCCC[C@H](N[C@@H](CCc1ccccc1)C(=O)O)C(=O)N1CCC[C@H]1C(=O)O : 1.01
CC(=O)O[C@H]1C[C@@H](OC(C)=O)C(C)(C)C2C[C@@H](OC(C)=O)[C@@]3(C)C4=CC(=O)O[C@@H](c5ccoc5)[C@]4(C)CCC3[C@]21C (stereo not given in full) : 0.987

Query: # query: normalized growth of entry CCCC(C)C1(CC)C(=O)NC(=O)NC1=O (stereo not given)
Reply: 0.978

Query: # query: normalized growth of entry C=CC(C1=CC(=O)C(OC)=CC1=O)c1ccc(O)cc1 (stereo not given)
Reply: 1.02

----------
test: chemical genetic growth profiling, strain panel (AID 1159580);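 note: tested at 20 µM; growth read once vehicle control cultures reached saturation at 30 °C; 1 = growth at the plate median or of vehicle wells; lower values mean less growth of the strain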; conditions: S. cerevisiae deletion strains, growth OD, locus YGR052W, strain FMP48, stronger effect = lower value
Hit rate of the full screen: of about 5,500 compounds, about 2,000 (36%) were called active. Another 18% or so got no clear call; they are omitted. The list shows a part of the results.
Labelling: normalized growth reported below 1 becomes label 1; at or above becomes label 0.

O=[N+]([O-])c1ccccc1CS(=O)(=O)c1nc2ccccc2s1 : label 1
Fc1cccc(Cl)c1CSc1nncn1-c1ccc(OCc2ccccc2)cc1 : label 0
O=C(NCCSCc1cccc(C(F)(F)F)c1)Nc1cccc(C(F)(F)F)c1 : label 0

Query: Is normalized growth of "Cc1cc(Cl)ccc1NC(=S)NNC(=S)Nc1ccc(F)cc1" strictly below 1?
Reply: label 0

Query: Is normalized growth of "N#CCC(=O)NNC(=S)Nc1ccc(Cl)c(Cl)c1" strictly below 1?
Reply: label 1

Query: Is normalized growth of "Cc1nn(Cc2ccc(C(=O)Sc3ccc(C(F)(F)F)cn3)o2)c(C)c1Br" strictly below 1?
Reply: label 1

Query: Is normalized growth of "CSc1cc(-c2ccncc2)nc(-c2cccs2)c1" strictly below 1?
Reply: label 0
